Where these numbers come from: patent US20250002473A1

System: A431
Protocol notes: Cell growth inhibition assay (CellTiter-Glo), A431
Assay type: cell-based
Assay context: Homo sapiens, A-431, 72 h, Table 8; A431 cells, three days; read-out: A431 GI50
Experimental: Cells were seeded in a 96-well plate (Corning 3610) with 90 μL of culture medium per well, and plates were incubated at 37° C. overnight. A 1,000× DMSO stock solution of the desired compound was prepared the following day. […] The content of the wells was mixed by shaking continuously for 10 min, and luminescence was measured using Envision (PerkinElmer). The data were analyzed with GraphPad Prism 9 (see FIG. 50). […]
Hi there, I'd appreciate the recorded GI50 for every entry that follows.
Answers are plain numbers, in nM.

For every item in the list below, what is its measured GI50?
1. COc1cc(N2CCN(C(=O)CN3CCN(c4ccc(NC5CCC(=O)NC5=O)cc4)CC3)CC2)c(-c2cnn(C)c2)cc1Nc1ncc(Br)c(Nc2ccc3nccnc3c2NS(C)(=O)=O)n1 (stereo not shown)
2. COc1cc(N2CCC(N3CCN(CCc4ccc(NC5CCC(=O)NC5=O)cc4)CC3)CC2)c(-c2cnn(C)c2)cc1Nc1ncc(Br)c(Nc2ccc3nccnc3c2NS(C)(=O)=O)n1 (stereo not shown)
3. COc1cc(N2CCC(N3CCN(CCc4cc(F)c(C5CCC(=O)NC5=O)c(F)c4)CC3)CC2)c(-c2cnn(C)c2)cc1Nc1ncc(Br)c(Nc2ccc3nccnc3c2NS(C)(=O)=O)n1 (stereo not shown)
4. COc1cc(N2CCC(N3CC4(CN(C(=O)CC5(O)CCN(c6ccc(NC7CCC(=O)NC7=O)cc6F)CC5)C4)C3)CC2)c(-c2cnn(C)c2)cc1Nc1ncc(Br)c(Nc2ccc3nccnc3c2NS(C)(=O)=O)n1 (stereo not shown)

1. 389
2. 436
3. 160
4. 746

I would be grateful if you could provide GI50 for each of the following entries.
1. CCn1c(=O)n(C2CCC(=O)NC2=O)c2cccc(CCN3CCN(C4CCN(c5cc(OC)c(Nc6ncc(Br)c(Nc7ccc8nccnc8c7NS(C)(=O)=O)n6)cc5-c5cnn(C)c5)CC4)CC3)c21 (stereo not shown)
2. COc1cc(N2CCN(C(=O)CN3CCC(c4ccc(NC5CCC(=O)NC5=O)cc4)CC3)CC2)c(-c2cnn(C)c2)cc1Nc1ncc(Br)c(Nc2ccc3nccnc3c2NS(C)(=O)=O)n1 (stereo not shown)

150
164

---

What follows is a collection of GI50 values obtained with NCI-H2073.
One number for each entry, in nM.

COc1cc(N2CCC(N3CCN(CCc4cc(F)c(C5CCC(=O)NC5=O)c(F)c4)CC3)CC2)c(-c2cnn(C)c2)cc1Nc1ncc(Br)c(Nc2ccc3nccnc3c2NS(C)(=O)=O)n1 (centres unmarked) [Compound 70] ... 134

Field: next molecule
Could you share which GI50 value was measured for CCn1c(=O)n(C2CCC(=O)NC2=O)c2cccc(CCN3CCN(C4CCN(c5cc(OC)c(Nc6ncc(Br)c(Nc7ccc8nccnc8c7NS(C)(=O)=O)n6)cc5-c5cnn(C)c5)CC4)CC3)c21 (centres unmarked) [Compound 28] ?
340

---

NCI-H2073: reported GI50 for various compounds.

COc1cc(N2CCC(N3CC4(CN(C(=O)CC5(O)CCN(c6ccc(NC7CCC(=O)NC7=O)cc6F)CC5)C4)C3)CC2)c(-c2cnn(C)c2)cc1Nc1ncc(Br)c(Nc2ccc3nccnc3c2NS(C)(=O)=O)n1 (stereo not drawn) ... > 3000 nM

State recorded GI50 for all listed compounds.
1. COc1cc(N2CCC(CN3CCN(c4ccc5c(c4)C(=O)N(C4CCC(=O)NC4=O)C5=O)CC3)CC2)c(-c2cnn(C)c2)cc1Nc1ncc(Br)c(Nc2ccc3nccnc3c2NS(C)(=O)=O)n1 (stereo not drawn)
2. COc1cc(N2CCN(CC3CCN(c4ccc5c(c4)C(=O)N(C4CCC(=O)NC4=O)C5=O)CC3)CC2)c(-c2cnn(C)c2)cc1Nc1ncc(Br)c(Nc2ccc3nccnc3c2NS(C)(=O)=O)n1 (stereo not drawn)

> 3000 nM
> 3000 nM
